- Tested on: UO-31
- assay: Cytotoxicity against human UO31 cells assessed as cell growth at 10 uM after 48 hrs by SRB assay relative to control
- Type: functional
- applied_conditions: UO-31, 48 h, read-out: Activity
Form field: growth at 10 µM (one value per entry).
outcome_measure: growth at 10 µM

{"molecule": "N#CCc1nn2c(CCC(=O)c3nc4ccccc4[nH]3)nnc2s1", "data_value": "75.5%"}
{"molecule": "NC1=Nn2c(CCC(=O)c3nc4ccccc4[nH]3)nnc2SC1", "data_value": "80.4%"}
{"molecule": "O=C(CCc1nnc2sc(COc3ccccc3)nn12)c1nc2ccccc2[nH]1", "data_value": "64.3%"}
{"molecule": "COc1ccc(-c2nn3c(CCC(=O)c4nc5ccccc5[nH]4)nnc3s2)cc1", "data_value": "69.6%"}
{"molecule": "O=C(CCc1nnc2n1N=C(O)CS2)c1nc2ccccc2[nH]1", "data_value": "79.8%"}
{"molecule": "O=C(CCc1nnc2sc(Nc3ccc(Cl)cc3)nn12)c1nc2ccccc2[nH]1", "data_value": "64.2%"}
